Every entry's value here was drawn from patent US20090005424A9.

# Assay Name: Acute oral toxicity in Kun Ming mice, LD50 by Bliss method
# Study Conditions: both sexes, Kun Ming (KM), mouse, in vivo, po, LD50 95% confidence limit
Recorded LD50 at 14 days, one value per entry.

Any idea what LD50 at 14 days was measured for Cc1ccc(=O)n(-c2ccccc2)c1 [PFD, 5-methyl-1-phenyl-2(1H)-pyridone, reference compound] ?
551 to 1660 mg/kg

***
Any idea what LD50 at 14 days was measured for Cc1ccc(=O)n(-c2cccc(F)c2)c1 ?
2400 to 3700 mg/kg

* * *

# Assay Name: Acute oral toxicity in Kun Ming mice, LD50 by Bliss method
# Study Conditions: both sexes, Kun Ming (KM), mouse, in vivo, po, LD50
# Experimental: Male and female Kun Ming (KM) mice weighing between 18 g-22 g were acquired from the animal facility of Hsiang-Ya Medical College, the Central South University. Fifty Kun Ming mice were randomly assigned into 5 groups with 5 male and 5 female mice for each group. […] Acute toxic reaction and death within 14 days of post drug treatment were recorded. […] LD50 was calculated according to Bliss method. […]
Readout Kind: LD50 at 14 days (mg/kg)
The figure you give is taken to be in mg/kg; do not add the unit.

Any idea what LD50 at 14 days was measured for Cc1ccc(=O)n(-c2cccc(F)c2)c1 ?
2980

Okay, now this compound:
Any idea what LD50 at 14 days was measured for Cc1ccc(=O)n(-c2ccccc2)c1 [PFD, 5-methyl-1-phenyl-2(1H)-pyridone, reference compound] ?
955
